# systemUnderTest: Tyrosine-protein phosphatase non-receptor type 1 (Homo sapiens)
# assayMethodText: Inhibition of recombinant PTP1B (unknown origin) using p-nitrophenyl phosphate as substrate assessed as inhibition of release of p-nitrophenol preincubated for 10 mins measured before substrate addition at 10 ug/ml after 30 mins by spectrophotometry
measuredParameter: inhibition

| lineNotation | inhibition |
| --- | --- |
| C[C@@H]1O[C@@H](O[C@H]2CC[C@]3(C)[C@H]4CC=C5[C@@H]6CC(C)(C)CC[C@]6(C(=O)O[C@@H]6O[C@H](CNC(=O)c7ccccc7C(=O)O)[C@@H](O)[C@H](O)[C@H]6O)CC[C@@]5(C)[C@]4(C)CC[C@H]3C2(C)C)[C@@H](O)[C@H](O)[C@@H]1O | > 54.7% |
| CC1(C)CC[C@]2(C(=O)O[C@@H]3O[C@H](CNC(=O)c4ccccc4C(=O)O)[C@@H](O)[C@H](O)[C@H]3O)CC[C@]3(C)C(=CC[C@@H]4[C@@]5(C)CC[C@H](O[C@@H]6OC[C@@H](O)[C@H](O)[C@H]6O)C(C)(C)[C@@H]5CC[C@]43C)[C@@H]2C1 | > 54.7% |
| CC1(C)CC[C@]2(C(=O)O[C@@H]3O[C@H](CNC(=O)c4ccccc4C(=O)O)[C@@H](O)[C@H](O)[C@H]3O)CC[C@]3(C)C(=CC[C@@H]4[C@@]5(C)CC[C@H](O)C(C)(C)[C@@H]5CC[C@]43C)[C@@H]2C1 | 54.7% |

Specify inhibition for CC1(C)CC[C@]2(C(=O)O[C@@H]3O[C@H](CNC(=O)c4ccccc4C(=O)O)[C@@H](O)[C@H](O)[C@H]3O)CC[C@]3(C)C(=CC[C@@H]4[C@@]5(C)CC[C@H](O[C@H]6O[C@H](CO)[C@@H](O)[C@H](O)[C@@H]6O)C(C)(C)[C@@H]5CC[C@]43C)[C@@H]2C1 and stop.
> 54.7%

----------
# systemUnderTest: Tyrosine-protein phosphatase non-receptor type 1 (Homo sapiens) (UniProt P18031)
# Sequence (whole entry): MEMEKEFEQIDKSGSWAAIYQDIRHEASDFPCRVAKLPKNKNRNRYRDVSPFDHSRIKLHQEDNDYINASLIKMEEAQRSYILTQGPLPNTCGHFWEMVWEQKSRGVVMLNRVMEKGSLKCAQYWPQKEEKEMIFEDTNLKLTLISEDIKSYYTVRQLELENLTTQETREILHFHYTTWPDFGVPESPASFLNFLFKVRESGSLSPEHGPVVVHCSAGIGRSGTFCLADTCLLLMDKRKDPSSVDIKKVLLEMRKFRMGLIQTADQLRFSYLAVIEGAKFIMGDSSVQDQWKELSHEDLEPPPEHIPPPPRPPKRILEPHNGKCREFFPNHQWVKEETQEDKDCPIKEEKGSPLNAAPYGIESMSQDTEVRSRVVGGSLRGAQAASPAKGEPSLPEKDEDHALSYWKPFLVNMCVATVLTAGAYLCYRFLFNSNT
# assayMethodText: Inhibition of recombinant PTP1B (unknown origin) using p-nitrophenyl phosphate as substrate assessed as inhibition of release of p-nitrophenol preincubated for 10 mins measured before substrate addition at 10 ug/ml after 30 mins by spectrophotometry
The entries below come with measured inhibition values attached.

Guide cases for inhibition, answers given:
| lineNotation | obsValue |
| --- | --- |
| CC1(C)CC[C@]2(C(=O)O[C@@H]3O[C@H](CNC(=O)c4ccccc4C(=O)O)[C@@H](O)[C@H](O)[C@H]3O)CC[C@]3(C)C(=CC[C@@H]4[C@@]5(C)CC[C@H](O[C@@H]6O[C@H](CO[C@@H]7O[C@H](CO)[C@@H](O)[C@H](O)[C@H]7O)[C@@H](O)[C@H](O)[C@H]6O)C(C)(C)[C@@H]5CC[C@]43C)[C@@H]2C1 | > 54.7% |
| CC1(C)CC[C@]2(C(=O)O[C@@H]3O[C@H](CNC(=O)c4ccccc4C(=O)O)[C@@H](O)[C@H](O)[C@H]3O)CC[C@]3(C)C(=CC[C@@H]4[C@@]5(C)CC[C@H](O[C@@H]6O[C@H](CO)[C@H](O)[C@H](O)[C@H]6O)C(C)(C)[C@@H]5CC[C@]43C)[C@@H]2C1 | > 54.7% |
| C[C@@H]1O[C@@H](O[C@H]2CC[C@]3(C)[C@H]4CC=C5[C@@H]6CC(C)(C)CC[C@]6(C(=O)O[C@@H]6O[C@H](CNC(=O)c7ccccc7C(=O)O)[C@@H](O)[C@H](O)[C@H]6O)CC[C@@]5(C)[C@]4(C)CC[C@H]3C2(C)C)[C@H](O)[C@H](O)[C@H]1O | > 54.7% |
| CC1(C)CC[C@]2(C(=O)O[C@@H]3O[C@H](CNC(=O)c4ccccc4C(=O)O)[C@@H](O)[C@H](O)[C@H]3O)CC[C@]3(C)C(=CC[C@@H]4[C@@]5(C)CC[C@H](O[C@@H]6OC[C@H](O)[C@H](O)[C@H]6O)C(C)(C)[C@@H]5CC[C@]43C)[C@@H]2C1 | > 54.7% |
| CC1(C)CC[C@]2(C(=O)O[C@@H]3O[C@H](CNC(=O)c4ccccc4C(=O)O)[C@@H](O)[C@H](O)[C@H]3O)CC[C@]3(C)C(=CC[C@@H]4[C@@]5(C)CC[C@H](O[C@@H]6O[C@H](CO)[C@@H](O[C@@H]7O[C@H](CO)[C@@H](O)[C@H](O)[C@H]7O)[C@H](O)[C@H]6O)C(C)(C)[C@@H]5CC[C@]43C)[C@@H]2C1 | > 54.7% |

Tell us which inhibition value is on record for CC1(C)CC[C@]2(C(=O)O[C@@H]3O[C@H](CNC(=O)c4ccccc4C(=O)O)[C@@H](O)[C@H](O)[C@H]3O)CC[C@]3(C)C(=CC[C@@H]4[C@@]5(C)CC[C@H](O[C@@H]6O[C@H](CO)[C@@H](O[C@@H]7O[C@H](CO)[C@H](O)[C@H](O)[C@H]7O)[C@H](O)[C@H]6O)C(C)(C)[C@@H]5CC[C@]43C)[C@@H]2C1
> 54.7%

Please give the documented inhibition of CC1(C)CC[C@]2(C(=O)O[C@@H]3O[C@H](CNC(=O)c4ccccc4C(=O)O)[C@@H](O)[C@H](O)[C@H]3O)CC[C@]3(C)C(=CC[C@@H]4[C@@]5(C)CC[C@H](O[C@@H]6O[C@H](CO)[C@@H](O)[C@H](O)[C@H]6O)C(C)(C)[C@@H]5CC[C@]43C)[C@@H]2C1
> 54.7%

----------
# systemUnderTest: Tyrosine-protein phosphatase non-receptor type 1 (Homo sapiens)
# assayMethodText: Inhibition of recombinant PTP1B (unknown origin) using p-nitrophenyl phosphate as substrate assessed as inhibition of release of p-nitrophenol preincubated for 10 mins measured before substrate addition after 30 mins by spectrophotometry
pIC50: −log10 of the molar value.
measuredParameter: pIC50

| lineNotation | systemUnderTest | pIC50 |
| --- | --- | --- |
| CC1(C)CC[C@]2(C(=O)O[C@@H]3O[C@H](CNC(=O)c4ccccc4C(=O)O)[C@@H](O)[C@H](O)[C@H]3O)CC[C@]3(C)C(=CC[C@@H]4[C@@]5(C)CC[C@H](O)C(C)(C)[C@@H]5CC[C@]43C)[C@@H]2C1 | Tyrosine-protein phosphatase non-receptor type 1 (Homo sapiens) | 4.69 |
| CC1(C)CC[C@]2(C(=O)O[C@@H]3O[C@H](CNC(=O)c4ccccc4C(=O)O)[C@@H](O)[C@H](O)[C@H]3O)CC[C@]3(C)C(=CC[C@@H]4[C@@]5(C)CC[C@H](O[C@H]6O[C@H](CO)[C@@H](O)[C@H](O)[C@@H]6O)C(C)(C)[C@@H]5CC[C@]43C)[C@@H]2C1 | Tyrosine-protein phosphatase non-receptor type 1 (Homo sapiens) | 4.80 |

----------
# Species: Homo sapiens
# assayMethodText: Selectivity ratio of IC50 for TCPTP (unknown origin) to IC50 for recombinant PTP1B (unknown origin)
measuredParameter: Ratio IC50

Solved entries (count: 4):
| lineNotation | Ratio IC50 |
| --- | --- |
| CC1(C)CC[C@]2(C(=O)O[C@@H]3O[C@H](CNC(=O)c4ccccc4C(=O)O)[C@@H](O)[C@H](O)[C@H]3O)CC[C@]3(C)C(=CC[C@@H]4[C@@]5(C)CC[C@H](O[C@@H]6OC[C@H](O)[C@H](O)[C@H]6O)C(C)(C)[C@@H]5CC[C@]43C)[C@@H]2C1 | 2.2 |
| CC1(C)CC[C@]2(C(=O)O[C@@H]3O[C@H](CNC(=O)c4ccccc4C(=O)O)[C@@H](O)[C@H](O)[C@H]3O)CC[C@]3(C)C(=CC[C@@H]4[C@@]5(C)CC[C@H](O[C@@H]6O[C@H](CO)[C@@H](O[C@@H]7O[C@H](CO)[C@H](O)[C@H](O)[C@H]7O)[C@H](O)[C@H]6O)C(C)(C)[C@@H]5CC[C@]43C)[C@@H]2C1 | 4 |
| CC1(C)CC[C@]2(C(=O)O[C@@H]3O[C@H](CNC(=O)c4ccccc4C(=O)O)[C@@H](O)[C@H](O)[C@H]3O)CC[C@]3(C)C(=CC[C@@H]4[C@@]5(C)CC[C@H](O[C@@H]6OC[C@@H](O)[C@H](O)[C@H]6O)C(C)(C)[C@@H]5CC[C@]43C)[C@@H]2C1 | 0.9 |
| CC1(C)CC[C@]2(C(=O)O[C@@H]3O[C@H](CNC(=O)c4ccccc4C(=O)O)[C@@H](O)[C@H](O)[C@H]3O)CC[C@]3(C)C(=CC[C@@H]4[C@@]5(C)CC[C@H](O)C(C)(C)[C@@H]5CC[C@]43C)[C@@H]2C1 | 1.2 |

[P] CC1(C)CC[C@]2(C(=O)O[C@@H]3O[C@H](CNC(=O)c4ccccc4C(=O)O)[C@@H](O)[C@H](O)[C@H]3O)CC[C@]3(C)C(=CC[C@@H]4[C@@]5(C)CC[C@H](O[C@@H]6O[C@H](CO)[C@@H](O)[C@H](O)[C@H]6O)C(C)(C)[C@@H]5CC[C@]43C)[C@@H]2C1
[Q] C[C@@H]1O[C@@H](O[C@H]2CC[C@]3(C)[C@H]4CC=C5[C@@H]6CC(C)(C)CC[C@]6(C(=O)O[C@@H]6O[C@H](CNC(=O)c7ccccc7C(=O)O)[C@@H](O)[C@H](O)[C@H]6O)CC[C@@]5(C)[C@]4(C)CC[C@H]3C2(C)C)[C@@H](O)[C@H](O)[C@@H]1O
// max by Ratio IC50 over [ P , Q ] Give the label of your selection.
P
(P: 1.8, Q: 0.8)
